subjectOfTest: Dual specificity calcium/calmodulin-dependent 3',5'-cyclic nucleotide phosphodiesterase 1B (Homo sapiens, UniProt Q01064)
Sequence (Q01064 whole entry, the tested form may be a part): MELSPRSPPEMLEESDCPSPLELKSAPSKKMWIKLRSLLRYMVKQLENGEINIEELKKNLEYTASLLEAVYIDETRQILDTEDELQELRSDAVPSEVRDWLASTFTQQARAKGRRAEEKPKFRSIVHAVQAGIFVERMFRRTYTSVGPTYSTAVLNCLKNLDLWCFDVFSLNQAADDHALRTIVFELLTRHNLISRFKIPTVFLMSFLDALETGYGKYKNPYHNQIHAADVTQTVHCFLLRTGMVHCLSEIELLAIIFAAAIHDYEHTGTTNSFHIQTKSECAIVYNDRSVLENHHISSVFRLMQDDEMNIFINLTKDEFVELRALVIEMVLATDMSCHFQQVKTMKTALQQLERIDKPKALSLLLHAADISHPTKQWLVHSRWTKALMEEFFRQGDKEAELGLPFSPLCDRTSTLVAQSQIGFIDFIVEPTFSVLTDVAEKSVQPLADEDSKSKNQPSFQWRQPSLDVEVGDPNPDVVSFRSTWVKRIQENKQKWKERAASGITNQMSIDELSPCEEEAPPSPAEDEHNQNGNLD
measurementDescription: Inhibition of PDE1B2 (10 to 487 residues) (unknown origin) using [3H]-cGMP substrate incubated for 15 mins by liquid scintillation counting method
measuredProperty: IC50 (nM)
// units = nM; emit number, no label

Answer with the recorded IC50 of C[C@H](Nc1nc2c(cnn2C2CCCC2)c(=O)[nH]1)c1ccc(Cl)cc1 only.
554

* * *

measurementDescription: Ratio of drug concentration in rat brain to plasma
Type: ADME
experimentalContext: read-out: BPR
measuredProperty: Kp

Answer with the recorded Kp of C[C@@H]1CN(Cc2ncccn2)C[C@H]1c1nc2c(cnn2C2CCOCC2)c(=O)[nH]1 only.
0.32

* * *

subjectOfTest: Dual specificity calcium/calmodulin-dependent 3',5'-cyclic nucleotide phosphodiesterase 1C (Homo sapiens, UniProt Q14123)
Sequence (Q14123 whole entry): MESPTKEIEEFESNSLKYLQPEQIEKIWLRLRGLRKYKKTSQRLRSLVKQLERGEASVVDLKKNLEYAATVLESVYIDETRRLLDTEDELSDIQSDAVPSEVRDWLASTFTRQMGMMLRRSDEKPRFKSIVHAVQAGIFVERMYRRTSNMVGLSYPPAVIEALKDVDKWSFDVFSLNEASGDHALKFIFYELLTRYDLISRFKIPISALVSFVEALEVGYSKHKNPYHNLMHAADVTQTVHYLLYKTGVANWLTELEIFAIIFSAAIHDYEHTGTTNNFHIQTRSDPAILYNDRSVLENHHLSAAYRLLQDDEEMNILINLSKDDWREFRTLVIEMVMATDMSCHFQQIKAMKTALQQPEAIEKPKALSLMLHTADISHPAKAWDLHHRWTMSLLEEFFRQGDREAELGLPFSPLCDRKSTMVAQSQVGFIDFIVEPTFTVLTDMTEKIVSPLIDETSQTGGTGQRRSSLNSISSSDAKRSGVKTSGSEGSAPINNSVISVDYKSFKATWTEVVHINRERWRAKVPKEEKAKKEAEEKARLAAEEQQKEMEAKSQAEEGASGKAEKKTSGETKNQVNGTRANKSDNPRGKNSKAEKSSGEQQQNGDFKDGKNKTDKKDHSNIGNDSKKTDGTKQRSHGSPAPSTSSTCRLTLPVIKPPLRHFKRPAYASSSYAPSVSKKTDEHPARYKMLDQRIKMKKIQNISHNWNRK
measurementDescription: Inhibition of human recombinant PDE1C expressed in Sf9 cells assessed as inhibition of breakdown of cGMP
measuredProperty: IC50 (nM)
// units = nM; emit number, no label

Answer with the recorded IC50 of C[C@@H](Cc1nc2c(cnn2-c2ccccc2Cl)c(=O)[nH]1)C(F)(F)F only.
1400

* * *

Below, each entry is listed alongside its reported pIC50.
subjectOfTest: cGMP-specific 3',5'-cyclic phosphodiesterase (Homo sapiens, UniProt O76074)
measurementDescription: Inhibition of PDE5 (unknown origin)
// field semantics: pIC50 = negative decimal log of concentration (mol/L)

For orientation, consider the following solved cases.
- molecule: "O=C(O)c1cc2nc(Cc3cccc(Cl)c3)[nH]c(=O)c2s1"
  subjectOfTest: "cGMP-specific 3',5'-cyclic phosphodiesterase (Homo sapiens, UniProt O76074)"
  assayResult: 5.37
- molecule: "CC(C)Cn1c(=O)n(C)c(=O)c2nc[nH]c21 [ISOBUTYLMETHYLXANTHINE]"
  subjectOfTest: "cGMP-specific 3',5'-cyclic phosphodiesterase (Homo sapiens, UniProt O76074)"
  assayResult: 4.50

Lab note: next molecule to report on.
Enter recorded pIC50 with cGMP-specific 3',5'-cyclic phosphodiesterase (Homo sapiens, UniProt O76074) for O=C(O)c1ccc2c(=O)[nH]c(Cc3cccc(Cl)c3)nc2c1 here.
5.09

* * *

Below, each entry is listed alongside its reported Kp.
measurementDescription: Ratio of drug concentration in mouse brain to plasma
Format: ADME
experimentalContext: read-out: BPR
When you answer, write just the number.

- smilesCode: "C[C@@H]1CN(Cc2ncccn2)C[C@H]1c1nc2c(cnn2C2CCOCC2)c(=O)[nH]1"
  Kp: 0.52

Lab note: next compound to report on.
Answer with the recorded Kp of O=c1[nH]c(Cc2ccccn2)nc2c1cnn2C1CCOCC1 only.
0.2

Origin of values: ChEMBL document CHEMBL5634081
